SUBJECT_OF_TEST: IFN-αJ1 (human, UniProt P01567 24-189)
EXPERIMENT_SUMMARY: cell-based or functional assay
Listed here are binders together with their documented IC50 (pM), ISRE assay.
Please give a number only; it is taken to be in pM.

// known answers, use as guide
BINDER: IFWM3320 (antibody, IgG1, V domains shown) VH: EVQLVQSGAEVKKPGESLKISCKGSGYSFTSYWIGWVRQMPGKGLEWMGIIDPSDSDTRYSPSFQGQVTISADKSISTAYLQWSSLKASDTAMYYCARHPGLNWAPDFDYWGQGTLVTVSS VL: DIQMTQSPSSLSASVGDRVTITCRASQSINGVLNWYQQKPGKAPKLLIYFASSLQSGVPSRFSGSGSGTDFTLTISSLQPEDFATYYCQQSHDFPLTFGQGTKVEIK
IC50 (pM), ISRE assay: 213
//
BINDER: IFWM3314 (antibody, IgG1, V domains shown) VH: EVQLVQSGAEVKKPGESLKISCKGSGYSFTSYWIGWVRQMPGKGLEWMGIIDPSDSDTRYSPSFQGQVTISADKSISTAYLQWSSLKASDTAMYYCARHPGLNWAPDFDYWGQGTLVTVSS VL: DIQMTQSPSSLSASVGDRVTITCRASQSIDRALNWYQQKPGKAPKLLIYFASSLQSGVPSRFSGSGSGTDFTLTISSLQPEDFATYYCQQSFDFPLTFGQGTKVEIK
IC50 (pM), ISRE assay: 86
//
BINDER: IFWM3385 (antibody, IgG1, V domains shown) VH: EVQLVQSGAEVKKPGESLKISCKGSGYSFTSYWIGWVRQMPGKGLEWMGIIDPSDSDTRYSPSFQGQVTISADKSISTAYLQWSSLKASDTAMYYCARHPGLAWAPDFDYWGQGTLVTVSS VL: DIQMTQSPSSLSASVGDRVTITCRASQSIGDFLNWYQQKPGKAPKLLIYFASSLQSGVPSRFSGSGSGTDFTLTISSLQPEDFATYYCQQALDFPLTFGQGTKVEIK
IC50 (pM), ISRE assay: 251
//
BINDER: IFWM3304 (antibody, IgG1, V domains shown) VH: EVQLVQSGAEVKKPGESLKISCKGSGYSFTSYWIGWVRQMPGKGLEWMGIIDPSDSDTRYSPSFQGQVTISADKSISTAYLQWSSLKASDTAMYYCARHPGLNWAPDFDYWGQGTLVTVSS VL: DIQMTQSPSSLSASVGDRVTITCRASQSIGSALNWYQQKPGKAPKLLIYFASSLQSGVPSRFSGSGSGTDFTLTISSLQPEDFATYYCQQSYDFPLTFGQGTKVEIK
IC50 (pM), ISRE assay: 126

Next binder, IC50 (pM), ISRE assay to be filled in.
I have this binder here, IFWM3416 (antibody, IgG1, V domains shown) VH: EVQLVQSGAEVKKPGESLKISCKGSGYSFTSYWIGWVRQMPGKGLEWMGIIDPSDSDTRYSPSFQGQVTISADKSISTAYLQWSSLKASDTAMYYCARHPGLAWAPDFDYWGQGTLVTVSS VL: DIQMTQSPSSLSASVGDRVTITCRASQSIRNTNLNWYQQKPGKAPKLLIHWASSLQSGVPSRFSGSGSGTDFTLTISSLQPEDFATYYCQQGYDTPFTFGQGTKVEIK , and I need its recorded IC50 (pM), ISRE assay.
61
